The origin of these recorded values is PubChem BioAssay (NCI).

Test system: SW-620 colon
Assay: NCI-60 one-dose screen, 48 h (100 = growth as untreated, 0 = no growth, -100 = all killed)
Conditions: 10 µM unless noted
Protocol: Growth inhibition of the SW-620 human tumor cell line is measured as a screen for anti-cancer activity. Cells are grown in 96 well plates and exposed to the test compound for 48 hours. Compounds are tested at a single concentration, which is 10^-5 M for most compounds. The reported endpoint is percent growth (GI% or GIPRCNT), where numbers from 0 - 100% represent growth inhibition, and numbers from -100% - 0 represent cell death. For example, a value of 40 represents 60% growth inhibition. […]
About 83,000 compounds went through this panel and 20% of them were active in at least one assay; those are over-represented in the sample as a whole.
Endpoint Name: growth (%)
Hi! Could you send only the number? It should be in %, unit omitted.

Solved cases (10 shown):
Compound | Target Desc | growth, %
CN1CCN(c2ccc(Nc3nc(NCCCNS(=O)(=O)c4ccc(F)cc4)c4sccc4n3)cc2)CC1 | SW-620 colon | 70.1
O=S(=O)(NCCCNc1nccc(-c2[nH]c(-c3ccccc3)nc2-c2ccc(F)c(O)c2)n1)c1ccc(C(F)(F)F)cc1 | SW-620 colon | 59.8
COc1ccccc1/C=C/C(=O)c1nnn(-c2ccc(F)cc2)c1C | SW-620 colon | 19.9
COc1cc(C(=O)c2cc(C(C)=O)c3c(C)cccn23)cc(OC)c1OC | SW-620 colon | 104
CCCNNC(=O)c1ccc(-c2ccc(NC(=O)CCCCCCC(=O)N[C@H](C(=O)N3C[C@H](O)C[C@H]3C(=O)N[C@@H](C)c3ccc(-c4scnc4C)cc3)C(C)(C)C)cc2)cc1 | SW-620 colon | 12.1
C#C[C@]1(O)CC[C@H]2[C@@H]3CC=C4c5sc(Nc6ccc(C)cn6)nc5CC[C@]4(C)[C@H]3CC[C@@]21C | SW-620 colon | -53.1
O=C(CCCCCCNC(=O)C(O)(O)C(F)(F)F)Nc1ncc(-c2ccccc2)s1 | SW-620 colon | 0.575
CCCCSC1=C(Cl)CN(c2ccccc2)C1=O | SW-620 colon | 106
Cc1ccc(-c2cc3nc(C(Cl)Cl)nc(-c4ccc(S(=O)(=O)N(C)C)cc4)n3n2)cc1 | SW-620 colon | 83.1
CCOC(=O)c1ccc(NC2=CC(=O)C(C)=C(C)C2=O)cc1 | SW-620 colon | 101

Prompt: What growth appears in the records for this compound with SW-620 colon? "CC(C)(C)c1cc(NC(=O)Nc2ccc(-c3cn4c5c(sc4n3)CCc3c[nH]cc3-5)cc2)no1"
Completion: 17.8

Prompt: What growth appears in the records for this compound with SW-620 colon? "Cc1ccc(NC2=C(Cl)C(=O)c3nc(C)ccc3C2=O)c(C)c1"
Completion: -29.4

Prompt: What growth appears in the records for this compound with SW-620 colon? "CC1CCN(CC(=O)Nn2c(COc3ccccc3)nc3ccccc3c2=O)CC1"
Completion: 57.2

Prompt: What growth appears in the records for this compound with SW-620 colon? "C#CCN(C)CCCOc1ccc(NCc2ccc(/C=C/C(=O)NO)cc2)cc1Cl"
Completion: 10.1

Prompt: What growth appears in the records for this compound with SW-620 colon? "C(=N\Nc1nc(N/N=C/c2ccc3c(c2)OCO3)nc(N2CCCCC2)n1)/c1ccc2c(c1)OCO2"
Completion: 82.4

Prompt: What growth appears in the records for this compound with SW-620 colon? COc1ccc(C2C(C#N)=C(/N=C/c3ccc(Cl)cc3)Oc3c2sc2c(C)cccc32)cc1 (stereo not drawn)
Completion: 31.2

Prompt: What growth appears in the records for this compound with SW-620 colon? "CC(C)(C)OC(=O)NCc1ccc(CNc2c([N+](=O)[O-])cnc3ccccc23)cc1"
Completion: 89.6

Prompt: What growth appears in the records for this compound with SW-620 colon? "CC[C@H](CC[C@@H](C)[C@H]1CC[C@H]2[C@@H]3CC(=O)C4=CC(=O)/C(=C/c5ccc([N+](=O)[O-])cc5)C[C@]4(C)[C@H]3CC[C@]12C)C(C)C"
Completion: 110
